Target protein (sequence): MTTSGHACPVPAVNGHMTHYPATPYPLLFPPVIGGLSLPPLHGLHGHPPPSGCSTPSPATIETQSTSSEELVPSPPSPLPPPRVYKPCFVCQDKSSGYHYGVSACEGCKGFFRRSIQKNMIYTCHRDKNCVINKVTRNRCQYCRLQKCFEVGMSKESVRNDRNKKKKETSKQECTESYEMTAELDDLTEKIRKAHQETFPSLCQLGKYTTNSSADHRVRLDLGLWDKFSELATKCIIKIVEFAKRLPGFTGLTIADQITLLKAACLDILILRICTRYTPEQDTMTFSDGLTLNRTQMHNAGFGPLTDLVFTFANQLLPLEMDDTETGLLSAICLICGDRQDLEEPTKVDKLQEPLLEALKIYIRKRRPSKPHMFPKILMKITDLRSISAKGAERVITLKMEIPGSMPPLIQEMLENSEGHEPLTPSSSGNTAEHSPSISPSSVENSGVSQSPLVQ
MEASURED_ATTRIBUTE: IC50 (nM)
Just the number please, in nM, no unit attached.

Give its IC50 value. Item: CCCCCCCCOc1cc(C)cc(OC)c1/C=C/C(C)=C/C=C/C(C)=C/C(=O)O
500

====

System: human sebaceous cells
PROCEDURE_SUMMARY: Antiproliferative activity on human sebocytes in vitro
Format: cell-based
CONDITION_LABEL: Homo sapiens, 240 h; first passage cells; 10 days of exposure; read-out: Inhibition of human sebaceous cell proliferation in vitro IC50
Experimental: Sebaceous cells were isolated from adult human sebaceous glands by a combination of enzymatic and mechanical methods (Doran et al., 1991). The cells were cultured in Iscove's medium containing 10% fetal calf serum and 4 μg/ml dexamethasone on a layer of growth-arrested 3T3 mouse fibroblasts. […] The cells were suspended, mixed vigorously to prepare a single cell suspension and counted in a hemocytometer. […]
MEASURED_ATTRIBUTE: IC50 (nM)
Just the number please, in nM, no unit attached.

# example entries with known answers
CC1=C(/C=C/C(C)=C(Cl)\C=C\C(C)=C\C(=O)O)C(C)(C)CCC1    100
CC1=C(/C=C/C(C)=C\C=C\C(C)=C\C(=O)O)C(C)(C)CCC1 [9-cis-retinoic acid, reference compound]    100

Here's the next entry for you.
Give its IC50 value. Item: CC1=C(/C=C/C(C)=C/C=C/C(C)=C\C(=O)O)C(C)(C)CCC1 [13-cis-retinoic acid, reference compound]
100

====

Protein target, amino acids: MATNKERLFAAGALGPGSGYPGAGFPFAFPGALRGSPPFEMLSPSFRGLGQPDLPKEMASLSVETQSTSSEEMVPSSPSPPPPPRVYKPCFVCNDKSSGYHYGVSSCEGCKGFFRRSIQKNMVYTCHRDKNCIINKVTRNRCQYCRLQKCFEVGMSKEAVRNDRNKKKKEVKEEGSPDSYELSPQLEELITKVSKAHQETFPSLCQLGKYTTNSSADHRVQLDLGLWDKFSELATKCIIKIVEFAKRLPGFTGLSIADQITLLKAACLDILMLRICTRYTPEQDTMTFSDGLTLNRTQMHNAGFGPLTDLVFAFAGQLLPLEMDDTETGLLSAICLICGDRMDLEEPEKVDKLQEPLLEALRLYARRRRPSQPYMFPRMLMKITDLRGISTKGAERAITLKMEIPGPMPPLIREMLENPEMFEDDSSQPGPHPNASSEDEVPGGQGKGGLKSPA
MEASURED_ATTRIBUTE: IC50

Give its IC50 value. Item: CCCCCCCCOc1cc(C)cc(OC)c1/C=C/C(C)=C/C=C/C(C)=C/C(=O)O
> 10 µM

meta.source: patent US5986131A
